target: human OT7T175 (metastin receptor) (human, UniProt Q969F8 1-398)
Sequence (Q969F8 whole entry L364H): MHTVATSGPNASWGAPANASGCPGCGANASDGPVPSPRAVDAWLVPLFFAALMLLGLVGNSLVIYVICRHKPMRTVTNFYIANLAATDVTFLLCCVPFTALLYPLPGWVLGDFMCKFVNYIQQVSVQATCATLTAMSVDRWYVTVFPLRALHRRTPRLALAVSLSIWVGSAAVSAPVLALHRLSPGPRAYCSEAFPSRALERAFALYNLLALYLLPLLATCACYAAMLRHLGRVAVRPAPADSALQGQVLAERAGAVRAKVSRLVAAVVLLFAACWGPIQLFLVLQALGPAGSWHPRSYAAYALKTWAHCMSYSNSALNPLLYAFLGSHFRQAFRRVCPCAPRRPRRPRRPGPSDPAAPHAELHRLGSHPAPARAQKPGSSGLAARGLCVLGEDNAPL
test details: cell-based or functional assay
Non-standard residues stand in square brackets, D forms with d. No end group written: not given here. Arg(Me) = CNC(=N)NCCC[C@H](N)C(=O)O
Entries and their measured Ca ion level-increasing activity (FLIPR) follow.

{"columns": ["binder", "Ca ion level-increasing activity (FLIPR)"],
 "data": [
  ["[dN]WNSFGL[Arg(Me)]F-NH2 (N-terminus assumed; SMILES CNC(=N)NCCC[C@H](NC(=O)[C@H](CC(C)C)NC(=O)CNC(=O)[C@H](Cc1ccccc1)NC(=O)[C@H](CO)NC(=O)[C@H](CC(N)=O)NC(=O)[C@H](Cc1c[nH]c2ccccc12)NC(=O)[C@H](N)CC(N)=O)C(=O)N[C@@H](Cc1ccccc1)C(N)=O, also called Compound No. 216) [des(1)-[D-Asn2,Arg(Me)9]MS10]", "1 x Metastin (1-54)"],
  ["[dY]QWNSFGL[Arg(Me)]F-NH2 (also called Compound No. 214) [[D-Tyr1,Gln2,Arg(Me)9]MS10]", "10 x Metastin (1-54)"],
  ["[dY][dW]NSFGL[Arg(Me)]F-NH2 (also called Compound No. 224) [des(1)-[D-Tyr2,D-Trp3,Arg(Me)9]MS10]", "2 x Metastin (1-54)"]
]}
